# Assay: logP by HPLC on reversed-phase column (EEC Directive 79/831 Annex V.A8)
# Assay type: physicochemical
# Experimental Parameters: HPLC, C18, 40° C., 0.1% aqueous formic acid and acetonitrile
Measured Quantity: log P
Reply briefly: the number, and no unit.

Below: 6 molecules and their reported log P.
Cc1cc(OCc2cccc(OC(F)(F)F)c2)c(C)cc1N=CN1CCCCC1    2.39
CCN(C)C=Nc1cc(C)c(OCc2ccc(SC)cc2)cc1C    2.16
CCN(C)C=Nc1cc(C)c(OCc2ccc(Cl)cc2Cl)cc1C    2.33
CCN(C)C=Nc1cc(C)c(OCc2c(F)cccc2F)cc1C    1.94
CCN(C)C=Nc1cc(C)c(OCc2cc(Cl)cc(C(F)(F)F)c2)cc1C    2.54
Cc1cc(OCc2ccc(F)c(F)c2)c(C)cc1N=CN1CCCCC1    2.13

Per the records, this molecule ( CCN(C)C=Nc1cc(C)c(CCc2cccc(C(F)(F)F)c2)cc1C ) has log P equal to 2.41

Per the records, this molecule ( CCN(C)C=Nc1cc(C)c(OCc2ccc(OC(F)F)cc2)cc1C ) has log P equal to 2.06

Per the records, this molecule ( Cc1cc(OCc2ccc(F)cc2)c(C)cc1N=CN1CCCCC1 ) has log P equal to 2.09
